- assay overview: method code SF-AS, from DOI: 10.1002/jps.2600830720, PMID: 7965659
- cond: pH 2.0
Where a SMILES comes first, the peptide text is derived from it.
Response field label: string, one of true (1) (logD strictly below 0.3) or false (0).

compound	answer label
CCC(C)C(NC(C)=O)C(=O)NC(CC(C)C)C(=O)NC(CC(=O)O)C(N)=O (stereo not drawn) (Ac-Ile-Leu-Asp-NH2; configuration not given here)	true (1)
CC(=O)N[C@@H](CC(C)C)C(=O)N[C@@H](CC(=O)O)C(=O)N[C@@H](CC(C)C)C(N)=O	true (1)
CC[C@H](C)[C@H](NC(=O)[C@H](CCC(=O)O)NC(C)=O)C(=O)N[C@@H](Cc1ccccc1)C(N)=O (Ac-Glu-Ile-Phe-NH2)	false (0)
CC(=O)N[C@@H](CC(=O)O)C(=O)N[C@@H](Cc1ccccc1)C(=O)N[C@@H](CC(C)C)C(N)=O	false (0)
CC(=O)N[C@@H](CC(C)C)C(=O)N[C@@H](CCC(=O)O)C(=O)N[C@@H](Cc1ccccc1)C(N)=O	false (0)
CC[C@H](C)[C@H](NC(=O)[C@H](CC(=O)O)NC(C)=O)C(=O)N[C@@H](Cc1ccccc1)C(N)=O	false (0)
CC(=O)N[C@@H](CCC(=O)O)C(=O)N[C@@H](Cc1ccccc1)C(=O)N[C@@H](CC(C)C)C(N)=O	false (0)
